All figures here come from the supplement of paper PMC12645437.

Biological target: T1, CRBN, Q96SW2;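 note: pooled lentiviral library of zinc finger degron-EGFP fusions in mCherry-positive Jurkat cells, FACS-sorted after compound exposure, with degron abundance counted by next-generation sequencing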
T1 chain: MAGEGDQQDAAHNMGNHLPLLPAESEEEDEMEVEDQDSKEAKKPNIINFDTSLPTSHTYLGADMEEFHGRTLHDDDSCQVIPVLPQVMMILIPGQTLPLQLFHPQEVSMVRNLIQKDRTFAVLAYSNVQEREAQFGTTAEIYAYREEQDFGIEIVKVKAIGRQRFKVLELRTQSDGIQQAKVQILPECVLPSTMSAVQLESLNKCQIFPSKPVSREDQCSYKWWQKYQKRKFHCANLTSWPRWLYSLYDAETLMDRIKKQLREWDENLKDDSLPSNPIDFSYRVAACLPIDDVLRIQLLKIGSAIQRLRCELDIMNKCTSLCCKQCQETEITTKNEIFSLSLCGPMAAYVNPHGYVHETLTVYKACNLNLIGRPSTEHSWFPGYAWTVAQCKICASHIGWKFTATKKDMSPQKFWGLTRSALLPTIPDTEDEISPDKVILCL
Experiment: log2 fold change of degron read counts, EGFP-low vs EGFP+ sorted cells (limma voom), compound-induced degradation; higher = more compound-induced degradation of the degron-EGFP fusion; degrons are variants of IKZF1/3 zinc finger 2; compound dose not given here
Conditions: Jurkat; 18 h; compound: compound 22 (5-morpholino-thalidomide)
Whole data set: some 8,300 sequences, median “log2 fold change of degron read counts, EGFP-low vs EGFP+ sorted cells (limma voom), compound-induced degradation” near -1.1, cut for the highest 2% near 3.2. Many of the other results were omitted from the sample, so the highest values are more common in it than they were.
endpoint-label: log2 fold change of degron read counts
I only need the number, thanks.

1. LQCPICGFCCTQKGNLLRHIKL [46L_47Q_49P_50I_52G_53F_54C_55C_67L_, Q9UKT9] : 2.25
2. LYCPICGFCCTQKGNLLRHIKL [46L_47Y_49P_50I_52G_53F_54C_55C_67L_, Q9UKT9] : 3.56
3. FICDICGAAFTQKGNLLRHIKL [46F_47I_49D_50I_52G_53A_54A_55F_67L_, Q9UKT9] : 2.29

Incoming: Output measured log2 fold change of degron read counts for this item: FSCPICGRCFTQKGNLLRHIKL [46F_47S_49P_50I_52G_53R_54C_55F_67L_, Q9UKT9]
Outgoing: -1.2

Incoming: Give a short answer stating reported log2 fold change of degron read counts for FACPVCGATFTQKGNLLRHIKL [46F_47A_49P_50V_52G_53A_54T_55F_67L_, Q9UKT9] .
Outgoing: 1.68

Incoming: Provide measured log2 fold change of degron read counts value, entry: FYCPVCGATFTQKGNLLRHIKL [46F_47Y_49P_50V_52G_53A_54T_55F_67L_, Q9UKT9]
Outgoing: 3.38

Incoming: Note log2 fold change of degron read counts for the sequence shown: LCCPICGFCCTQKGNLLRHIKL [46L_47C_49P_50I_52G_53F_54C_55C_67L_, Q9UKT9]
Outgoing: 2.1

Incoming: For the sequence FQCEQCGACFTQKGNLLRHIKL [46F_47Q_49E_50Q_52G_53A_54C_55F_67L_, Q9UKT9] , report log2 fold change of degron read counts.
Outgoing: 0.107

Incoming: Please report the measured log2 fold change of degron read counts for FYCDICGAAFTQKGNLLRHIKL [46F_47Y_49D_50I_52G_53A_54A_55F_67L_, Q9UKT9]
Outgoing: 3.23

Incoming: Tell me its log2 fold change of degron read counts given FTCEVCGAKFTQKGNLLRHIKL [46F_47T_49E_50V_52G_53A_54K_55F_67L_, Q9UKT9] as the entry.
Outgoing: 1.8

Incoming: Specify reported log2 fold change of degron read counts for the sequence shown: FHCPVCGATFTQKGNLLRHIKL [46F_47H_49P_50V_52G_53A_54T_55F_67L_, Q9UKT9]
Outgoing: 1.21

Incoming: For LACPICGFQCTQKGNLLRHIKL [46L_47A_49P_50I_52G_53F_54Q_55C_67L_, Q9UKT9] , write its log2 fold change of degron read counts.
Outgoing: 2.59

Incoming: Determine its reported log2 fold change of degron read counts: FCCDICGAAFTQKGNLLRHIKL [46F_47C_49D_50I_52G_53A_54A_55F_67L_, Q9UKT9]
Outgoing: 2.17

Incoming: State, in one line, measured log2 fold change of degron read counts of FECPQCGAFFTQKGNLLRHIKL [46F_47E_49P_50Q_52G_53A_54F_55F_67L_, Q9UKT9]
Outgoing: -3.69

Incoming: Return value of log2 fold change of degron read counts for input LNCPICGFCCTQKGNLLRHIKL [46L_47N_49P_50I_52G_53F_54C_55C_67L_, Q9UKT9] , no commentary.
Outgoing: 0.635

Incoming: Annotate the sequence LVCPICGFQCTQKGNLLRHIKL [46L_47V_49P_50I_52G_53F_54Q_55C_67L_, Q9UKT9] with its measured log2 fold change of degron read counts.
Outgoing: 2.72

Incoming: Quickly give me recorded log2 fold change of degron read counts for FQCDICGAAFTQKGNLLRHIKL [46F_47Q_49D_50I_52G_53A_54A_55F_67L_, Q9UKT9]
Outgoing: 2.51

Incoming: Return the recorded log2 fold change of degron read counts value; entry: FLCDQCGAYFTQKGNLLRHIKL [46F_47L_49D_50Q_52G_53A_54Y_55F_67L_, Q9UKT9]
Outgoing: -2.52
